Entries and their SH2 binding enrichment
molecular target: SHP2-C SH2; test: SH2 binding enrichment of the phosphorylated peptide, bacterial display (enrichment ratio); higher = better substrate or ligand; peptides without Tyr show the background;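 note: peptide library displayed on the E. coli surface as eCPX fusions, selected cells deep-sequenced, score is each peptide's frequency after selection divided by its frequency in the input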
// keep it numeric: no unit symbol after the value

AMIADYMFWLG [SPATA16_Y290]: 1.17
SNNFIYTTLGV [FAM83B_Y639_K640T_YF]: 0.927

(Q) // lookup SH2 binding enrichment for EFISENCGEII [EZH2_Y641_Y641N]
(A) 0.714

(Q) // lookup SH2 binding enrichment for DEIPLYLKGGV [COX7A2_Y44]
(A) 0.716

---

biological target: MERTK (UniProt Q12866); assay: phosphorylation enrichment, bacterial display (enrichment ratio); higher = better substrate or ligand; peptides without Tyr show the background
Sequence (Q12866 whole entry, looked up): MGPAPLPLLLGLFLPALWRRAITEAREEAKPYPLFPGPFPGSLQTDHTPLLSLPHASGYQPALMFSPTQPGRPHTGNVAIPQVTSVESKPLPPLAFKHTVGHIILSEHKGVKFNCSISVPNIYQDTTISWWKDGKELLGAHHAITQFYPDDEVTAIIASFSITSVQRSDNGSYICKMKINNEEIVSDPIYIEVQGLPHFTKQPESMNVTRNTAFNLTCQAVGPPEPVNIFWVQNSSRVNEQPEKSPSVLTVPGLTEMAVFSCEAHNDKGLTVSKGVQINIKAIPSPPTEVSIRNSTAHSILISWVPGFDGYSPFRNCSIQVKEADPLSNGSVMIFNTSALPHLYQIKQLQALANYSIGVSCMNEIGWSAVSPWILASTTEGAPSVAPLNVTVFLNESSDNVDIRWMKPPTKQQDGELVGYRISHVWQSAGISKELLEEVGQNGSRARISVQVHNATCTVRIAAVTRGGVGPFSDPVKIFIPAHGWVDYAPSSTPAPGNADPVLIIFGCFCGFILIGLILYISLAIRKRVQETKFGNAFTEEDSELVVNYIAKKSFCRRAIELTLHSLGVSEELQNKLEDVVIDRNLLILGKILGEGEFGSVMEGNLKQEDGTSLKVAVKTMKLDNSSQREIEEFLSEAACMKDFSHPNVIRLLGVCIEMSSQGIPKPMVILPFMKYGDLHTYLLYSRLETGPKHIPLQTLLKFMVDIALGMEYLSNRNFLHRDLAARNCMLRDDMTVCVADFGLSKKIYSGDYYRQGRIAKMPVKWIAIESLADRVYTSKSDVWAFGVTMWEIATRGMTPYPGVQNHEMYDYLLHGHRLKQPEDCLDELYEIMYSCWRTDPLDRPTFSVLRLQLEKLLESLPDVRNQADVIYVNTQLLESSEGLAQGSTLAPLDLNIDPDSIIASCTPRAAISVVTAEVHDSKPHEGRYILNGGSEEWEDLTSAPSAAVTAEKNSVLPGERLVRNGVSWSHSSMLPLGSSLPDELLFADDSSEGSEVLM
Entries and their phosphorylation enrichment
// keep it numeric: no unit symbol after the value

KLVQLYDVCTK [BTK_Y461_G462D]: 7.27
RASQEYHIVKK [PDZD2_Y557_S552R]: 0.356
SVFNNYIQTLG [CTNND1_Y174_S171F]: 0.411
FKEIVYAVSSD [DCX_Y70_G67E]: 1.93
LIDSSYLTRTA [GREB1L_Y1063]: 0.527

Kindly review the next sequence as well.
(Q) // lookup phosphorylation enrichment for KDHPDYKFQPR [SOX10_Y171_YF]
(A) 0.468

Source of measurements: the supplement of paper PMC10065799
